// data source = the supplement of paper PMC10567573

Listing: protein stability index of selected variants
B1: SCNN1D (parent)
chain: FYRLYQDLETHRLPCTSRCPRPCR

# Variants of: B1
# Experimental Details: protein stability index of a GFP-peptide fusion (GPS, HEK-293T) (PSI 1-6); higher = more stable;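 further: lentivirally expressed fusions sorted by FACS into six bins by GFP to DsRed ratio, PSI derived from sequencing read proportions per bin multiplied by bin number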
# Experimental Setup: c terminus: a fixed tail appended
Measured Parameter: protein stability index

- Mutant Id: "F1E"
  Data Value: 3.71
- Mutant Id: "R3C"
  Data Value: 1.98
- Mutant Id: "Y2A"
  Data Value: 2.69
- Mutant Id: "Q6L"
  Data Value: 1.54
- Mutant Id: "P14N"
  Data Value: 1.96
- Mutant Id: "C19M"
  Data Value: 2.06
- Mutant Id: "R3Y"
  Data Value: 1.66
- Mutant Id: "E9S"
  Data Value: 1.94
- Mutant Id: "R3L"
  Data Value: 2
- Mutant Id: "C23V"
  Data Value: 1.85
- Mutant Id: "R12F"
  Data Value: 2.41
